Sourced from ChEMBL document CHEMBL4813994

- Tested on: HCC1937
- protocol.text: Antiproliferative activity against human BRCA-1 deficient HCC1937 cells assessed as reduction in cell growth incubated for 7 days by cell titer-glo assay
- Format: functional, cell-based
- details: HCC1937, 168 h
pIC50: −log10 of the molar value.
parameter.measured: pIC50

Cc1c(CN2CCN(C(=O)c3cc(Cc4n[nH]c(=O)c5ccccc45)ccc3F)CC2)sc2c(N3CCOCC3)nc(-c3cnc(N)nc3)nc12
6.39
Cc1c(CN2CCN(C(=O)c3cc4cccc(C(N)=O)c4o3)CC2)sc2c(N3CCOCC3)nc(-c3ccc(F)c(N)c3)nc12
5.27
Cc1c(CN2CCN(C(=O)[C@H](C)O)CC2)sc2c(N3CCOCC3)nc(-c3cnc(N)nc3)nc12 [APITOLISIB]
5.49
Cc1c(CN2CCN(C(=O)c3cc4cccc(C(N)=O)c4o3)CC2)sc2c(N3CCOCC3)nc(-c3cnc(N)cc3C(F)(F)F)nc12
6.30
Cc1c(CN2CCN(C(=O)c3cc4cccc(C(N)=O)c4o3)CC2)sc2c(N3CCOCC3)nc(-c3cnc(N)nc3)nc12
6.54

[1] Cc1c(CN2CCN(C(=O)c3cc4cccc(C(N)=O)c4o3)CC2)sc2c(N3CCOCC3)nc(-c3ccc4cn[nH]c4c3)nc12
[2] Cc1c(CN2CCN(C(=O)c3cc4cccc(C(N)=O)c4o3)CC2)sc2c(N3CCOCC3)nc(-c3cccc4[nH]ncc34)nc12
Task: When their pIC50 values are compared, which is larger, 1 or 2 ? # reply format: chosen label
Output: 2

[1] Cc1c(CN2CCN(C(=O)c3cc4cccc(C(N)=O)c4o3)CC2)sc2c(N3CCOCC3)nc(-c3ccc(N)c(F)c3)nc12
[2] Cc1c(CN2CCN(C(=O)c3cc(Cc4n[nH]c(=O)c5ccccc45)ccc3F)CC2)sc2c(N3CCOCC3)nc(-c3cnc(N)cc3C(F)(F)F)nc12
Task: Sorting ascending by pIC50, which comes first: 1 or 2 ? # reply format: chosen label
Output: 1
